# System: red blood cells (mechanically defibrinated sheep blood)
# experimental_protocol: Red blood cell (RBC) lysis assay (Lysis20)
# Format: cell-based
# test_conditions: sheep RBCs in PBS, 37° C., 1 hour, absorbance 540 nm; Table 1
result_type: Lysis20 (highest concentration at which <20% of RBCs are lysed) (μm)

INSERT INTO assay_data (compound, value_unit, qualifier_operator, reported_measurement) VALUES
  ('CCCCCCCCCCCCCC[n+]1cccc(CN(Cc2ccc[n+](CCCCCCCCCCCCCC)c2)Cc2ccc[n+](CCCCCCCCCCCCCC)c2)c1', 'μm', '=', 4),
  ('CCCCCCCCCCCC[n+]1ccc(CCCc2cc[n+](CCCCCCCCCCCC)cc2)cc1', 'μm', '=', 4),
  ('CCCCCCCC[n+]1cccc(CN(Cc2ccc[n+](CCCCCCCC)c2)Cc2ccc[n+](CCCCCCCC)c2)c1', 'μm', '>', 250),
  ('CCCCCCCCCCC[n+]1ccc(CCCc2cc[n+](CCCCCCCCCCC)cc2)cc1', 'μm', '=', 8),
  ('CCCCCCCCCC[n+]1cccc(CN(Cc2ccc[n+](CCCCCCCCCC)c2)Cc2ccc[n+](CCCCCCCCCC)c2)c1', 'μm', '=', 4),
  ('CCCCCCCCCCCCCCCC[n+]1cccc(CN(Cc2ccc[n+](CCCCCCCCCCCCCCCC)c2)Cc2ccc[n+](CCCCCCCCCCCCCCCC)c2)c1', 'μm', '=', 4),
  ('CCCCCCCCCC[n+]1ccc(CN(Cc2cc[n+](CCCCCCCCCC)cc2)Cc2cc[n+](CCCCCCCCCC)cc2)cc1', 'μm', '=', 4),
  ('CCCCCCCCCCCCCCCCCC[n+]1cccc(CN(Cc2ccc[n+](CCCCCCCCCCCCCCCCCC)c2)Cc2ccc[n+](CCCCCCCCCCCCCCCCCC)c2)c1', 'μm', '=', 8),
  ('CCCCCCCCCCC[n+]1cccc(CN(Cc2ccc[n+](CCCCCCCCCCC)c2)Cc2ccc[n+](CCCCCCCCCCC)c2)c1', 'μm', '=', 4),
  ('CCCCCCCCCCCC[n+]1ccc(CN(Cc2cc[n+](CCCCCCCCCCCC)cc2)Cc2cc[n+](CCCCCCCCCCCC)cc2)cc1', 'μm', '=', 8),
  ('CCCCCCCC[n+]1ccc(CCCc2cc[n+](CCCCCCCC)cc2)cc1', 'μm', '=', 125),
  ('c1cc(CN(Cc2ccncc2)Cc2ccncc2)ccn1 [Compound P3Pyr, reference compound]', 'μm', '=', 125),
  ('CCCCCCCCCC[n+]1ccc(CCCc2cc[n+](CCCCCCCCCC)cc2)cc1', 'μm', '=', 16),
  ('c1cc(CCCc2ccncc2)ccn1 [Compound 2Pyr, 1,3-di-(4-pyridyl)propane, reference compound]', 'μm', '>', 250);

---

# System: hospital-acquired methicillin-resistant Staphylococcus aureus HA-MRSA (ATCC 33591)
# experimental_protocol: microbe, parasite or virus in culture
# Assay type: cell-based
# test_conditions: Staphylococcus aureus, 72 h, read-out: MIC, HA-MRSA
Flag rule - MIC less than 4 µM flags Fulfilled; the remaining entries get Not fulfilled.

INSERT INTO measurements (compound, label) VALUES
  ('CCCCCCCCCCCC[n+]1cccc(CN(Cc2ccc[n+](CCCCCCCCCCCC)c2)Cc2ccc[n+](CCCCCCCCCCCC)c2)c1', 'Fulfilled'),
  ('CCCCCCCCCCCCCCCCCC[n+]1ccc(CCCc2cc[n+](CCCCCCCCCCCCCCCCCC)cc2)cc1', 'Not fulfilled'),
  ('CCCCCCCCCCCC[n+]1ccc(CN(Cc2cc[n+](CCCCCCCCCCCC)cc2)Cc2cc[n+](CCCCCCCCCCCC)cc2)cc1', 'Fulfilled'),
  ('CCCCCCCCCCCCCCCC[n+]1ccc(CCCc2cc[n+](CCCCCCCCCCCCCCCC)cc2)cc1', 'Not fulfilled'),
  ('CCCCCCCC[n+]1cccc(CN(Cc2ccc[n+](CCCCCCCC)c2)Cc2ccc[n+](CCCCCCCC)c2)c1', 'Fulfilled'),
  ('c1cc(CN(Cc2ccncc2)Cc2ccncc2)ccn1 [Compound P3Pyr, reference compound]', 'Not fulfilled');

Reference source for all entries: patent US12459898B2
